# procedure text: AUC in rhesus monkey at 2 mg/kg, po
# Type: ADME, organism-based, Macaca mulatta
# Parameters: dose 2 mg/kg, route oral
# run conditions: plasma
parameter measured: AUC

Problem: For `CN(C)C(=O)[C@@H]([C@H]1CC[C@H](c2ccc3ncnn3c2)CC1)[C@H](N)C(=O)N1CCC(F)(F)C1` , what is its reported AUC?
Solution: 6.5 µM·h

----------
# procedure text: Half life in rat at 1 mg/kg, iv or 2 mg/kg, po
# Type: ADME, organism-based
# run conditions: in vivo
parameter measured: half-life (h)
Reply with just the number (in h).

Problem: Fill blank: measured half-life of the compound `CN(C)C(=O)[C@@H]([C@H]1CC[C@H](c2ccc3ncnn3c2)CC1)[C@H](N)C(=O)N1CCC(F)(F)C1` is ____.
Solution: 4.1

----------
# procedure text: Cmax in rat at 1 mg/kg, iv or 2 mg/kg, po
# Type: ADME, organism-based
# run conditions: in vivo
parameter measured: Cmax (µM)
Answer with a number only, understood to be in µM.

Problem: Bench note: what Cmax did `CN(C)C(=O)[C@@H]([C@H]1CC[C@H](c2ccc3ncnn3c2)CC1)[C@H](N)C(=O)N1CCC(F)(F)C1` show?
Solution: 3.3

----------
# procedure text: Plasma clearance in rat at 1 mg/kg, iv or 2 mg/kg, po
# Format: ADME, organism-based
Documented clearance across a set of compounds

[
  {
    "smiles data": "CN(C)C(=O)[C@@H](c1ccc(-c2ccc3ncnn3c2)cc1)[C@H](N)C(=O)N1CC[C@H](F)C1",
    "measurement": "7 mL/min/kg"
  }
]

Problem: Requested field: clearance. Item: `CN(C)C(=O)[C@@H](c1ccc(-c2ccc(F)cc2)cc1)[C@H](N)C(=O)N1CC[C@H](F)C1`
Solution: 4.8 mL/min/kg

Problem: Any idea what its clearance is? The compound is `CC(=O)N[C@H]1CC[C@H]([C@H](C)[C@H](N)C(=O)N2CC[C@H](F)C2)CC1`
Solution: 42 mL/min/kg

Problem: Fill blank: measured clearance of the compound `C[C@@H](c1ccc(-c2ccc(F)cc2)cc1)[C@H](N)C(=O)N1CC[C@H](F)C1` is ____.
Solution: 8.6 mL/min/kg

Problem: clearance for `CN(C)C(=O)[C@@H]([C@H]1CC[C@H](c2ccc3ncnn3c2)CC1)[C@H](N)C(=O)N1CCC(F)(F)C1` ?
Solution: 5.3 mL/min/kg

----------
// values below are reported bioavailability
# procedure text: Oral bioavailability in rat
# Type: ADME, organism-based
# run conditions: in vivo
Write the value in % as a bare number.

Problem: Which bioavailability value belongs to `CN(C)C(=O)[C@@H]([C@H]1CC[C@H](c2cccc3ncnn32)CC1)[C@H](N)C(=O)N1CC[C@H](F)C1` ?
Solution: 31

Problem: Would you kindly share the measured bioavailability for `CN(C)C(=O)[C@@H]([C@H]1CC[C@H](c2cccc3ncnn32)CC1)[C@H](N)C(=O)N1CCC(F)(F)C1` ?
Solution: 98

----------
# procedure text: Plasma clearance in rhesus monkey at 1 mg/kg, iv or 2 mg/kg, po
# Type: ADME, organism-based, Macaca mulatta
parameter measured: clearance (mL/min/kg)
Please respond with the number in mL/min/kg and leave the unit unwritten.

Problem: I have this compound here, `CN(C)C(=O)[C@@H]([C@H]1CC[C@H](c2ccc3ncnn3c2)CC1)[C@H](N)C(=O)N1CCC(F)(F)C1` , and I need its recorded clearance.
Solution: 5.6

----------
# procedure text: Cmax in rhesus monkey at 1 mg/kg, iv or 2 mg/kg, po
# Format: ADME, organism-based, Macaca mulatta
# run conditions: in vivo
parameter measured: Cmax

Problem: May I ask what Cmax has been recorded for `CN(C)C(=O)[C@@H]([C@H]1CC[C@H](c2ccc3ncnn3c2)CC1)[C@H](N)C(=O)N1CCC(F)(F)C1` ?
Solution: 2.8 µM

----------
# procedure text: Half life in rhesus monkey at 1 mg/kg, iv or 2 mg/kg, po
# Format: ADME, organism-based, Macaca mulatta
# run conditions: in vivo
parameter measured: half-life
Value and unit, in that order.

Problem: Need half-life, item `CN(C)C(=O)[C@@H]([C@H]1CC[C@H](c2ccc3ncnn3c2)CC1)[C@H](N)C(=O)N1CCC(F)(F)C1`
Solution: 4.1 h

----------
IC50 listing for selected compounds.
# tgt: Voltage-gated inwardly rectifying potassium channel KCNH2 (Homo sapiens, UniProt Q12809)
# Sequence (Q12809 whole entry): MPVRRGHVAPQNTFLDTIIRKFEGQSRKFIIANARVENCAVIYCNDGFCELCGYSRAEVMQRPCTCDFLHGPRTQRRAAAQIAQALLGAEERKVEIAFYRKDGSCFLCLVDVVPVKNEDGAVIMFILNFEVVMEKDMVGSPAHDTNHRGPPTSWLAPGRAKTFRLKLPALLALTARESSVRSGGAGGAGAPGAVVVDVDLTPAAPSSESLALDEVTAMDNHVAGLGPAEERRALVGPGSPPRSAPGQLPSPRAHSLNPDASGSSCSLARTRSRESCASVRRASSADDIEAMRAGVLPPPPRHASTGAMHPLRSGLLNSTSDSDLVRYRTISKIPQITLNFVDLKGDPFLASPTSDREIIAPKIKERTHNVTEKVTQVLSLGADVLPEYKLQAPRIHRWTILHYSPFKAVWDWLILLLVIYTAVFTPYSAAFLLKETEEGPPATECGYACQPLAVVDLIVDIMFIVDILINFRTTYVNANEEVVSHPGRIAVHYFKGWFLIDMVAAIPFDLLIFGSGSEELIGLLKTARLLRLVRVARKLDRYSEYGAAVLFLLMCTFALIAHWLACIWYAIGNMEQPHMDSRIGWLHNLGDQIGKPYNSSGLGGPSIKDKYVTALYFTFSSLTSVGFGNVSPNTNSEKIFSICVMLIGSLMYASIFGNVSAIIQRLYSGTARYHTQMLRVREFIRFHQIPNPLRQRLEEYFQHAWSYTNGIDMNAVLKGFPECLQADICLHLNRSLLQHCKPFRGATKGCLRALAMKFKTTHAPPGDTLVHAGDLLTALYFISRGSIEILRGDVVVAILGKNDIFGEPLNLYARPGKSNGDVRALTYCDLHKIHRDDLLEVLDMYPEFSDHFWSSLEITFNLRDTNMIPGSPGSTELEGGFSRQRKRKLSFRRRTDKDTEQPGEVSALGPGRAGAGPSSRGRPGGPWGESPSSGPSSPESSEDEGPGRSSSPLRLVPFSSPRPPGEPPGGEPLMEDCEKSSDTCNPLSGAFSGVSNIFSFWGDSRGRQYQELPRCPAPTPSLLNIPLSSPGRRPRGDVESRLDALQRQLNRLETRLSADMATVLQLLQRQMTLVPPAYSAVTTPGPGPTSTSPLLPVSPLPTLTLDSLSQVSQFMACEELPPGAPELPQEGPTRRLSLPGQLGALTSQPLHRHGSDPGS
# procedure text: Inhibition of human ERG

[
  {
    "smiles data": "CN(C)C(=O)[C@@H]([C@H]1CC[C@H](c2ccc3ncnn3c2)CC1)[C@H](N)C(=O)N1CCC(F)(F)C1",
    "measurement": "> 90 µM"
  }
]

Pending compound:
Problem: So what does the record say about IC50 for `CC(=O)N[C@H]1CC[C@H]([C@H](C)[C@H](N)C(=O)N2CC[C@H](F)C2)CC1` ?
Solution: > 100 µM

----------
# procedure text: Oral bioavailability in dog at 0.5 mg/kg
# Assay type: ADME, organism-based, Canis lupus familiaris
# run conditions: in vivo
parameter measured: bioavailability (%)
Just the number in %, nothing appended.

Problem: I am curious: what bioavailability value has been reported for `CN(C)C(=O)[C@@H]([C@H]1CC[C@H](c2ccc3ncnn3c2)CC1)[C@H](N)C(=O)N1CCC(F)(F)C1` ?
Solution: 100

----------
# procedure text: Oral bioavailability in rat at 2 mg/kg
# Type: ADME, organism-based
# run conditions: in vivo
List of bioavailability values.
# number only, unit % dropped from output

Previously resolved entries follow.
[
  {
    "smiles data": "CN(C)C(=O)[C@@H]([C@H]1CC[C@H](c2ccc3ncnn3c2)CC1)[C@H](N)C(=O)N1CCC(F)(F)C1",
    "units label": "%",
    "bioavailability": 63
  },
  {
    "smiles data": "C[C@@H](c1ccc(-c2ccc(F)cc2)cc1)[C@H](N)C(=O)N1CC[C@H](F)C1",
    "units label": "%",
    "bioavailability": 85
  }
]

Now consider a different compound.
Problem: For the compound `CC(=O)N[C@H]1CC[C@H]([C@H](C)[C@H](N)C(=O)N2CC[C@H](F)C2)CC1` , what bioavailability is on record?
Solution: 56

Taken from ChEMBL document CHEMBL1137497.
